Test system: KM12 colon
Experiment: NCI-60 one-dose screen, 48 h (100 = growth as untreated, 0 = no growth, -100 = all killed)
Conditions: 10 µM unless noted
About 83,000 compounds went through this panel and 20% of them were active in at least one assay; those are over-represented in the sample as a whole.
Each entry below lists one item and its recorded growth value.
Give just the numeric value; % need not be written.

| COMPOUND | growth / % |
| --- | --- |
| COc1cc2nc3c(=O)n(-c4ccc(C#N)cc4)cnn3c(=O)c2cc1OC | 91.7 |
| CC(=O)c1cc2c(N)c(C(=O)Nc3ccccn3)sc2nc1C | 89.3 |
| N#Cc1nc(-c2ccccc2)oc1S(=O)(=O)NCC(c1ccc(Cl)cc1)N1CCCCC1 (stereo unspecified) | 80.6 |

Task item: I am curious: what growth value has been reported for `CCCn1c2cc(OCc3cn(-c4ccc(Br)cc4)nn3)ccc2c2ccnc(C)c21` ?
Reply: 67.6

Task item: Tell me the measured growth of `O=c1[nH]c2ccccc2cc1-c1nc2ccc(Cl)cc2[nH]1` , please.
Reply: 5.1

Task item: Request the reported growth associated with `COc1ccc(-c2nnc(N3CCN(C(=O)CN4CCN(c5ccc(OC)cc5)CC4)CC3)nc2-c2ccc(OC)cc2)cc1`
Reply: -13.1

====

System: SN12C renal
Assay: NCI-60 one-dose screen, 48 h (100 = growth as untreated, 0 = no growth, -100 = all killed)
Details: 10 µM unless noted
Compounds without any hit were thinned out: in the full panel of roughly 83,000, 20% have a hit. Active and inactive are the calls of the source. Rule for the calls: active = growth percent below 10; inactive = the rest.
QUANTITY_KIND: growth

// worked examples, growth included
| COMPOUND | growth |
| --- | --- |
| NS(=O)(=O)c1ccc(C2C3=C(CCCC3=O)OC3=C2C(=O)c2ccccc2C3=O)cc1 (configuration not stated) | -52.7% (active) |
| COc1ccc2oc(=O)cc(-c3c(C#N)c(N)n4nc(N)c(C#N)c4c3C#N)c2c1 | 103% (inactive) |
| O=[N+]([O-])c1cccc(CN(Cc2cccc([N+](=O)[O-])c2O)c2ccccc2)c1O | 80.6% (inactive) |
| COc1cc(N=Nc2cc(S(=O)(=O)O)cc3cc(S(=O)(=O)O)cc(O)c23)c(C)cc1N=Nc1c(S(=O)(=O)O)cc2cc(Nc3ccccc3)ccc2c1O | 103% (inactive) |
| CCN(CC)c1ccc2c(c1)Oc1nc(N)c(C#N)c(N)c1C2Sc1ccc(OC)cc1 (configuration not stated) | 4.18% (active) |
| Cc1ccccc1NC(=O)c1sc2nc(C)c(C(C)O)cc2c1N (configuration not stated) | 51.3% (inactive) |
| CCC[S@](=O)c1ccc2nc(NC(=O)OC)[nH]c2c1 | 100% (inactive) |
| N#Cc1c(-c2ccc(F)cc2)c(C#N)c2c(C#N)c(N)nn2c1N | 104% (inactive) |

Task item: I would be grateful if you could share the reported growth for `CN(C)CCCn1c2c(c3cc(-c4ccco4)ccc3c1=O)C(=O)c1ccccc1-2` .
Reply: 51.9% (inactive)

Task item: # growth lookup, item `C(=C\c1cn(-c2ccccc2)nc1-c1ccccc1)/c1nnc(-c2c[nH]c3ccccc23)o1`
Reply: 27.9% (inactive)

Task item: Looking for the measured growth of `O=C1C(=O)c2c(nc3ccc(C(F)(F)F)cn23)-c2ccccc21` , can you help?
Reply: -84.4% (active)

Task item: Need growth of `C=C(C)[C@@H]1CC[C@]2(C(=O)O)CC[C@]3(C)[C@H](CC[C@@H]4[C@@]5(C)C[C@@H](CC#Cc6ccccc6C)C(=O)C(C)(C)[C@@H]5CC[C@]43C)[C@@H]12` , thanks.
Reply: 37.8% (inactive)
